Data origin, for the record: patent US20170037110A1

Target: T1, HLA-A*02:01 (human)
T1 construct: monomers captured on streptavidin plates; also called MHC class I
Assay: UV peptide exchange ELISA
Source text: Candidate peptides for T cell based therapies according to the present invention were further tested for their MHC binding capacity (affinity). The individual peptide-MHC complexes were produced by UV-ligand exchange, where a UV-sensitive peptide is cleaved upon UV-irradiation, and exchanged with the peptide of interest as analyzed. Only peptide candidates that can effectively bind and stabilize the peptide-receptive MHC molecules prevent dissociation of the MHC complexes. […]
Catalogue of peptide exchange yield values

Answered examples (4):
RLPGPLGTV :: 20 to 50%
VMYADIGGMDI :: 50 to 75%
GLLDYPVGV :: 50 to 75%
ALGPEGGRV :: 20 to 50%

// switching to the query binder
// peptide exchange yield value for `FQIDPHSGLVTV` : 20 to 50%
